biological target: LIN54 DBD (Homo sapiens, UniProt Q6MZP7 515-646); assay: fluorescence polarization; ITC (25 C) and FP: 20 mM Tris, 150 mM NaCl, 0.1% Tween 20, pH 8.0; NMR: 35 mM MES, 75 mM NaCl, 5% D2O, pH 6.0, 25 C; details: protein: recombinant; tags: N-terminal GST with TEV site, cleaved; blunt
Sequence (Q6MZP7 515-646): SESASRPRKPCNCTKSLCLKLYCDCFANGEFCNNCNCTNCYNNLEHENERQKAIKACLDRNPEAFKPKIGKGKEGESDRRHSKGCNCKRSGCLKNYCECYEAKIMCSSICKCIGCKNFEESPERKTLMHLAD

{"columns": ["binder", "Kd (µM)"],
 "data": [
  ["CHR13 (FP) (dsDNA) DNA 1: GAGTTTGAAACTG DNA 2: CAGTTTCAAACTC", 5]
]}

Hello, the source for this data is paper PMC4974476, in case you need it.
